- Tested on: tobacco mosaic virus (TMV)
- METHOD: Anti-TMV protective activity (protection mode), live friction inoculation on tobacco seedlings
- Assay type: in vivo
- RUN CONDITIONS: Tobacco mosaic virus, read-out: Anti-TMV activity, Protection effect (inhibition)
Where inhibition at 100 µg/mL equals or exceeds 1%, the correct label is Met; where it does not, the label is Not met.

1. O=C(NCc1ccc(F)cc1)/C(=C/c1ccccc1)NC(=O)c1ccccc1 :: Not met
2. O=C(NC(Cc1ccccc1)C(=O)N1CCC(c2ccccc2)CC1)c1ccccc1 (centres unmarked) :: Met
3. O=C(N/C(=C\c1ccccc1)C(=O)N1CCC(c2nc(CO)cs2)CC1)c1ccccc1 :: Not met
4. O=C(N/C(=C\c1ccc(C(F)(F)F)cc1)C(=O)N1CCC(O)(c2ccc(Br)cc2)CC1)c1ccccc1 :: Met
5. CCOC(=O)c1csc(C2CCN(C(=O)/C(=C/c3ccccc3)NC(=O)c3ccccc3)CC2)n1 :: Not met

Query :: # check: inhibition at 100 µg/mL of O=C(NCc1ccccc1Br)/C(=C/c1ccccc1)NC(=O)c1ccccc1 is greater than or equal to 1%
Result :: Met

Query :: # check: inhibition at 100 µg/mL of O=C(NCc1ccc(Br)cc1)/C(=C/c1ccccc1)NC(=O)C1CCCCC1 is greater than or equal to 1%
Result :: Met

---

The entries below are paired with their reported inhibition at 50 µg/mL.
- System: Physalospora piricola
- METHOD: Fungicidal activity, fungi growth rate method, PP
- Type: cell-based
- RUN CONDITIONS: 50 μg/mL; read-out: Fungicidal activity, inhibition, PP
Output spec: scalar in %, unitless text.

Worked set:
1. O=C(NCc1cccs1)/C(=C/c1ccccc1)NC(=O)c1ccccc1 :: 9
2. O=C(N/C(=C\c1ccccc1)C(=O)N1CCC(O)(c2ccc(Br)cc2)CC1)c1ccc(Cl)cc1 :: 12
3. CC(C)(C)OC(=O)N1CCC(C(=O)N/C(=C\c2ccccc2)C(=O)N2CCC(O)(c3ccc(Br)cc3)CC2)CC1 :: 21
4. CC(C)(C)OC(=O)N1CCC(c2nc(/C=C(\NC(=O)c3ccccc3)C(=O)N3CCC(O)(c4ccc(Br)cc4)CC3)cs2)CC1 :: 0
5. CONC(=O)/C(=C/c1csc(C2CCN(C(=O)OC(C)(C)C)CC2)n1)NC(=O)c1ccccc1 :: 44

Per the records, this molecule ( CNC(=O)/C(=C/c1csc(C2CCN(C(=O)OC(C)(C)C)CC2)n1)NC(=O)c1ccccc1 ) has inhibition at 50 µg/mL equal to 37

Per the records, this molecule ( O=C(N/C(=C\c1ccccc1)C(=O)N1CCC(O)(c2ccc(Br)cc2)CC1)c1ccc(C(F)(F)F)cc1 ) has inhibition at 50 µg/mL equal to 7

---

PROPERTY LABEL: melting point

Worked set:
1) Cc1snnc1/C=C1\N=C(c2ccccc2)OC1=O :: 149 to 151 °C
2) COc1ccc(C(=O)N/C(=C\c2ccccc2)C(=O)N2CCC(O)(c3ccc(Br)cc3)CC2)cc1 :: 195 to 197 °C
3) O=C(NCc1ccc(Br)cc1)/C(=C/c1ccccc1)NC(=O)C1CCCCC1 :: 215 to 216 °C
4) COC(=O)[C@H]1CCCN1C(=O)/C(=C/c1ccccc1)NC(=O)c1ccccc1 :: 155 to 157 °C

Per the records, this compound ( O=C(N/C(=C\c1ccccc1)C(=O)N1CCC(O)(c2ccc(Br)cc2)CC1)c1ccccc1[N+](=O)[O-] ) has melting point equal to 122 to 124 °C

---

The entries below are paired with their reported inhibition at 50 µg/mL.
- Tested on: Physalospora piricola
- METHOD: Fungicidal activity, fungi growth rate method, PP
- Assay type: cell-based
- RUN CONDITIONS: 50 μg/mL; read-out: Fungicidal activity, inhibition, PP
Output spec: scalar in %, unitless text.

1) CCOC(=O)c1csc(C2CCN(C(=O)/C(=C/c3ccccc3)NC(=O)c3ccccc3)CC2)n1 :: 2
2) O=C(N/C(=C\c1ccc(C(F)(F)F)cc1)C(=O)N1CCC(O)(c2ccc(Br)cc2)CC1)c1ccccc1 :: 10
3) O=C(NCc1ccc(Cl)cc1)/C(=C/c1ccccc1)NC(=O)c1ccccc1 :: 4
4) O=C(NC(Cc1ccccc1)C(=O)N1CCC(c2ccccc2)CC1)c1ccccc1 (stereo not drawn) :: 14
5) O=C(NC1CCCCC1)/C(=C/c1ccccc1)NC(=O)c1ccccc1 :: 0

Per the records, this compound ( COC(=O)[C@H](C)NC(=O)/C(=C/c1ccccc1)NC(=O)c1ccccc1 ) has inhibition at 50 µg/mL equal to 0

Per the records, this compound ( O=C(N/C(=C\c1ccccc1)C(=O)N1CCC(O)(c2ccc(Br)cc2)CC1)C1CCCCC1 ) has inhibition at 50 µg/mL equal to 7

Per the records, this compound ( O=C(N/C(=C\c1ccccc1)C(=O)N1CCC(O)(c2ccc(Br)cc2)CC1)c1ccccc1 [Compound 76, reference compound] ) has inhibition at 50 µg/mL equal to 15

Per the records, this compound ( O=C(N/C(=C\c1ccccc1C(F)(F)F)C(=O)N1CCC(O)(c2ccc(Br)cc2)CC1)c1ccccc1 ) has inhibition at 50 µg/mL equal to 8

Per the records, this compound ( O=C(N/C(=C\c1ccccc1)C(=O)N1CCC(O)(c2ccc(Br)cc2)CC1)c1ccccc1[N+](=O)[O-] ) has inhibition at 50 µg/mL equal to 17

---

Structures can show the parent of a compound that is named as a salt.
The entries below are paired with their reported melting point.

Worked set:
1) CC(C)(C)OC(=O)N1CCC(c2nc(/C=C(\NC(=O)c3ccccc3)C(=O)O)cs2)CC1 :: 125 to 127 °C
2) COc1ccc(/C=C(\NC(=O)c2ccccc2)C(=O)N2CCC(O)(c3ccc(Br)cc3)CC2)cc1 :: 208 to 210 °C
3) O=C(N/C(=C\c1ccccc1)C(=O)N1CCC(O)CC1)c1ccccc1 :: 115 to 117 °C
4) O=C(NC1CC1)/C(=C/c1ccccc1)NC(=O)c1ccccc1 :: 185 to 186 °C

Per the records, this compound ( O=C(NCc1ccc(F)cc1)/C(=C/c1ccccc1)NC(=O)c1ccccc1 ) has melting point equal to 199 to 201 °C

Per the records, this compound ( Cc1nnsc1/C=C1\N=C(c2ccccc2)OC1=O ) has melting point equal to 196 to 198 °C

Per the records, this compound ( O=C(N/C(=C\c1ccccc1)C(=O)N1CCC(O)(c2ccc(Br)cc2)CC1)C1CCNCC1 (as salt: hydrochloride) ) has melting point equal to 147 to 149 °C

Per the records, this compound ( O=C(O)/C(=C/c1ccccc1)NC(=O)c1ccc(C(F)(F)F)cc1 ) has melting point equal to 184 to 186 °C

Per the records, this compound ( CC(C)(C)OC(=O)N1CCC(c2nc(/C=C(\NC(=O)c3ccccc3)C(=O)NCC(F)F)cs2)CC1 ) has melting point equal to 164 to 165 °C

---

The entries below are paired with their reported melting point.

1) CONC(=O)/C(=C/c1ccccc1)NC(=O)c1ccccc1 :: 166 to 168 °C
2) COC(=O)CCNC(=O)/C(=C/c1ccccc1)NC(=O)c1ccccc1 :: 139 to 141 °C
3) O=C(N/C(=C\c1ccccc1)C(=O)N1CCC(O)(c2ccc(Br)cc2)CC1)c1ccc(F)cc1 :: 129 to 130 °C
4) O=C(NC(Cc1ccccc1)C(=O)N1CCC(c2ccccc2)CC1)c1ccccc1 (stereo not drawn) :: 143 to 144 °C
5) O=C(N/C(=C\c1ccc(F)cc1)C(=O)N1CCC(O)(c2ccc(Br)cc2)CC1)c1ccccc1 :: 266 to 268 °C

Moving on to another compound below.
Per the records, this compound ( O=C(N/C(=C\c1ccccc1)C(=O)N1CCC(O)(c2ccc(Br)cc2)CC1)c1ccc(Br)cc1 ) has melting point equal to 186 to 188 °C

---

- Test system: Physalospora piricola
- METHOD: Fungicidal activity, fungi growth rate method, PP
- Format: cell-based
- RUN CONDITIONS: 50 μg/mL; read-out: Fungicidal activity, inhibition, PP
PROPERTY LABEL: inhibition at 50 µg/mL

Worked set:
1. O=C(OCc1ccc(Br)cc1)/C(=C/c1ccccc1)NC(=O)c1ccccc1 :: 6%
2. CNC(=O)/C(=C/c1ccccc1)NC(=O)c1ccccc1 :: 12%
3. O=C(NCc1ccc(Br)cc1)/C(=C/c1ccccc1)NC(=O)C1CCCCC1 :: 12%
4. O=C(O)/C(=C/c1ccccc1)NC(=O)C1CC1 :: 3%
5. CC(C)(C)OC(=O)N1CCC(c2nc(/C=C(\NC(=O)c3ccccc3)C(=O)O)cs2)CC1 :: 32%
6. O=C(NCc1cccc(Br)c1)/C(=C/c1ccccc1)NC(=O)c1ccccc1 :: 18%
7. O=C(NCc1ccc(Br)cc1)/C(=C/c1ccccc1)NC(=O)C1CC1 :: 8%
8. O=C(NCc1ccc(Br)cc1)/C(=C/c1ccccc1)NC(=O)c1ccccc1 :: 12%

Moving on to another compound below.
Per the records, this compound ( O=C(NCc1ccccc1)/C(=C/c1ccccc1)NC(=O)c1ccccc1 ) has inhibition at 50 µg/mL equal to 13%

The reported numbers originate from patent US11166460B2.
